Experiment: Half life of the compound in acetate buffer at pH 4 at 37 degC after 24 hrs by UPLC method
Assay type: physicochemical
Reported endpoint: half-life

INSERT INTO assay_data (molecule, val) VALUES
  ('COC(=O)N[C@H](C(=O)NN(Cc1ccc(-c2ccccn2)cc1)C[C@H](OC(=O)[C@@H](NC(=O)OC)C(C)(C)C)[C@H](Cc1ccccc1)NC(=O)OCc1oc(=O)oc1C)C(C)(C)C', '> 20.8 days'),
  ('COC(=O)N[C@H](C(=O)NN(Cc1ccc(-c2ccccn2)cc1)C[C@H](OC(=O)[C@@H](NC(=O)OC)C(C)(C)C)[C@H](Cc1ccccc1)NC(=O)OC(OC(=O)[C@@H](N)C(C)C)C(C)C)C(C)(C)C.Cl.Cl (stereo partly specified)', '> 20.8 days'),
  ('COC(=O)N[C@H](C(=O)NN(Cc1ccc(-c2ccccn2)cc1)C[C@H](OC(=O)[C@@H](NC(=O)OC)C(C)(C)C)[C@H](Cc1ccccc1)NC(=O)OCOC(=O)[C@@H](N)C(C)C)C(C)(C)C.Cl.Cl', '13.9 days'),
  ('COC(=O)N[C@H](C(=O)NN(Cc1ccc(-c2ccccn2)cc1)C[C@H](OC(=O)[C@@H](NC(=O)OC)C(C)(C)C)[C@H](Cc1ccccc1)NC(=O)OC(OC(=O)[C@H](N)C(C)C)C(C)C)C(C)(C)C.Cl.Cl (stereo partly specified)', '> 20.8 days'),
  ('COC(=O)N[C@H](C(=O)N[C@@H](Cc1ccccc1)[C@@H](O)CN(Cc1ccc(-c2ccccn2)cc1)NC(=O)[C@@H](NC(=O)OC)C(C)(C)C)C(C)(C)C', '> 20.8 days');

Next:
Exercise: Which half-life value belongs to COC(=O)N[C@H](C(=O)NN(Cc1ccc(-c2ccccn2)cc1)C[C@H](OC(=O)[C@@H](NC(=O)OC)C(C)(C)C)[C@@H](N)Cc1ccccc1)C(C)(C)C.Cl.Cl ?
Solution: 13.9 days

###

System: Rattus norvegicus
Experiment: Tmax in Sprague-Dawley rat assessed as atazanavir at 3 mg/kg, po equiv of atazanavir after 0.25 to 24 hrs by UPLC/MS/MS method
Type: ADME, organism-based
Details: in vivo
Reported endpoint: Tmax (h)

(1) COC(=O)N[C@H](C(=O)NN(Cc1ccc(-c2ccccn2)cc1)C[C@H](OC(=O)[C@@H](NC(=O)OC)C(C)(C)C)[C@H](Cc1ccccc1)NC(=O)OCOC(=O)[C@@H](N)C(C)C)C(C)(C)C.Cl.Cl
(2) COC(=O)N[C@H](C(=O)NN(Cc1ccc(-c2ccccn2)cc1)C[C@H](OC(=O)[C@@H](NC(=O)OC)C(C)(C)C)[C@H](Cc1ccccc1)NC(=O)OC(OC(=O)[C@H](N)C(C)C)C(C)C)C(C)(C)C.Cl.Cl (stereo not given in full)
Exercise: I'm curious whether 1 or 2 has the smaller Tmax number. Which is it? Returns: label corresponding to the selected item.
Solution: 1

###

Experiment: AUC (0 to 24 hrs) in pentagastrin treated Sprague-Dawley rat at 10 mg/kg, po by UPLC/MS/MS method
Assay type: ADME, organism-based
Design: dose 10 mg/kg, time < 24 hr, route oral
Conditions: in vivo
Reported endpoint: AUC(0-t) at 24 h (µM·h)
Quick note: give the figure in µM·h, leave out the unit.

Exercise: Need AUC(0-t) at 24 h, item COC(=O)N[C@H](C(=O)N[C@@H](Cc1ccccc1)[C@@H](O)CN(Cc1ccc(-c2ccccn2)cc1)NC(=O)[C@@H](NC(=O)OC)C(C)(C)C)C(C)(C)C [ATAZANAVIR]
Solution: 2.46

Taken from ChEMBL document CHEMBL4184322.
